test description: yeast display, Sf9 membrane polyspecificity reagent, FACS + sequencing; frameworks hold sequencing errors
observable: polyreactivity (PSR sort gate)

residue codes	observable	result value
QVQLVESGGALVQAGGSLRISCAASGFTLQRNTMGWYRQAPGKDREFVAAISVRGGSTYYADSVKGRFTNSRDTAKNTVYLQMNSLKPEDTAVYYCAAVGRPSQYSYPYGYWGQGTQVTVSS	polyreactivity (PSR sort gate)	high polyreactivity
QVQLVESGGGLGQAGGSLRLSCAASGRIFRDYAMGWYRQAPGKERQLVAAISWSGGSSYYADSVKGRFTISRDNAKNTVDLQMNSLKQEDTAVYYCAVEYYGGDSYRYDYWGQGTQVTVSS	polyreactivity (PSR sort gate)	low polyreactivity
QVQLVESGGGLVQAGGSLRLSCAASGSTFSSYVMGWYRQAPGKERELVAAISSIGGSTYYADSVKGRFTISRDNAKNTVYLQMNSLKPEDTAVYYCNADYVIYFGLYEYWGQGTQVTVSS	polyreactivity (PSR sort gate)	low polyreactivity
QVQLVESGGGLVQAGGSLRLSCAASGRIFNYNTMGWYRQAPGKERELVAAINFSGDRTYYADSVKGRFTISRDISKNTVYLQMNSLKPEDTAVYYCAAQGYWYGYQPGNYWGQGTQVTVSS	polyreactivity (PSR sort gate)	high polyreactivity
QVQLVESGGGLVQAGGSLRLSCAASGFIFGYYAMGWYRQAPGKERELVAAISFSGDRTYYADSVKGRFTISRDNAKNTVYLQMNSLKPEDTAVYYCNAKRWGDYTQYRYNYWGQGTQVTVSS	polyreactivity (PSR sort gate)	high polyreactivity

###

test description: yeast display, Sf9 membrane polyspecificity reagent, FACS + sequencing; frameworks hold sequencing errors

residue codes	polyreactivity (PSR sort gate)
QVQLVESGGGLVQAGGSLRLSCAASGRISVFYTRGWYRQAPGKERELVAVIRTSGGRTNYADSVKGRFTISRDNAKNTVYLQMNSLKPEDTAVYYCAARVVRYGYKYYYWGQGTQVTVSS	low polyreactivity
QVKLVDSGGGLVQAGGSLRLTCAASGRTLGRNGMGWYRQDPGKERELVAAISLSGGRSYADSVKGRFTISRDNAKNSVYLQMNSLKPEDTAVYYCAKVGYSRRYAYNVYYWGQGTQLTVSS	low polyreactivity

###

test description: yeast display, Sf9 membrane polyspecificity reagent, FACS + sequencing; frameworks hold sequencing errors
observable: polyreactivity (PSR sort gate)

residue codes	result value
QVHLVESGGGLVQAGGSLRLSCAASGYIFKVNAMGWYRQATRKERELVAAISSDGGSTYADSVKGRFTISRDNAKNTVYLEFYSLKTEDTAVYYCNVDLESERDPPKYVYWGQGTQVTVSS	low polyreactivity
QVQLVESGGGLVQAGGSLRLSCAASGSIFGISTMGWYRQAPGKERELVAAITSGDRTSYADSVKGRFTISRDNAKNTVYLQMNTLKPEDTAVYYCARDYYSYRYLRYDYWGQGTQVTVSS	low polyreactivity
QVQLVESGGGLVQAGGSLRLSCAACGSLFGYNAMGWYRQAPGKERELVAAISYSGGSTYYADSVKGRFTISRDNAKNTDFLQMNSLKPEETAVYYCNAYRRYKDEDYWGQGTQVTVSS	high polyreactivity
QVWLQESGGGLVQACGSLRLSCAASGTISRDIFMGWYRQAPGKEREFVATIAQGGITNYADSVKGRFTISRDNAKNTVYLQMNSVKPGDTAVYYCAARDGNCYWFYYGGQGTQVTVSS	high polyreactivity
QVQLVESGGGLVQAGGSLRLSCAASGSTFGPNAMGWYRQAPGKERELVAAITDSGVSTYYAVSVKGRFTISRDNAKYTVYLQMNSLKPEDTAVYYCATDWYLHRFDYWGQGTQVTVSS	low polyreactivity
QVQLQESGGGLVQPGGSLRLSCAASGYISSWYPMGWYPQAPGKEREFVATIAPGATTYYADSVKGRFTISRDYANNTVYLQMNSLKPEDTAVYYLAAGPENKDFYSYWCQGTQVTVSS	low polyreactivity
QVQLVESVGGLVQAGGRLRLSCAASGITFEPYAMGWYRPAPGKEREFVADITWSGGSTYYADSVKGRFTISRDNAKNTVYLQMNSLKPEDTAVYYCAADGWTSYWSDYWGQGTQVTVSS	low polyreactivity
QVQLVESGGGLVQAGGSLRLSCAASGRTFSDNAMGWYRQAPGKERELVAASSRSGGRTYYADSVKGRFTISRDNAKNTVYLQMNSLKPEDTAVYYCAAAPSVSGTRLYEYWGQGTQVTVSS	high polyreactivity
QVQLVESGGGLVQAGGSLRLSCAASGNILVENAMGWYRQAPGKERELVAVSTSGTSTYADSVKGRFTISRDNAKNSVSFQMNSLKPEDTAVYYCNARRINTLYDSWGQGTLVTVSS	low polyreactivity
QVQLVDSGGGLVQAGGSLRISCAASGSIFPPYAMGWSRQAPGKERELVAAITYSGVRTYYADSVKGRFTISRDNAKNTVYLQMNSLKPEDTAVYYCAAVYRRGIGYPFGYWGQGTQVSVSS	high polyreactivity
QVQLVESGGGLVQAGGSLRLSCAASGSILSLYTMGWYRQAPGKERELVARISRSGGSTYYADSVKGRFTISRDNAKNTVYLQMNSLKTEDTAVYYCAARPYVVIYYGKSRGYYWGQGTQVTVSS	high polyreactivity
QVQLVESGGGLVQAGGSLRLSCAASGRIFVGYAMGWYRQAPGKERELVAVISGRGGSTYYADSVKGRFTISRDNAKNTVYLQMNSLKPEDTAVYYCATDYYGPDYPLDYWGQGTQVTVSS	low polyreactivity
QVQLVESGGGLVQAGGSLRLICAASGSIFRIYAMGWYRQAPGKEREFVAAISRRGGSTYYADSVKGRFTISRDNAKNTVYLQMNSLKPEDTAVYYCAASGGGSDAYWGQGTQVTVSS	high polyreactivity
QVQLVESGGGLVQAGGSLRLSCAASGRTIVIYAMGWYRQAPGKERELVAAIRSGGRTNYADSVKVRFTISRDNAKNTVYLQMNSLIPEDTAVYYCATRGWLRSGYDYWGQGTQVTVSS	high polyreactivity
QVQHVESGGGLVQAAGSLRLICYASGSIFGSYAMGWYRPAPGKERELVAAISSRGSRTYYADSVKGRFTISRDNAKNTVYLQMNSLKPEDTAVYYSNAGALTNYDYWGQGTQVTVSS	high polyreactivity
QVQLVESGGGLVQAGGSLRLSCAASGSTFGSNAMGGYRKAPGKERELVAAISTSGGSTYYADSVKGRFTISRDNAKNTVYLQMNSLKPEDTAVYYCNVDPAYSITYKGDYWGQGTQVSVSS	low polyreactivity

###

test description: yeast display, Sf9 membrane polyspecificity reagent, FACS + sequencing; frameworks hold sequencing errors

residue codes	polyreactivity (PSR sort gate)
QVQLVESGGGLVQAGGSLRLSCAASGRTFIFYAMGWYRQAPVKERELVAAITYSGTSTYYADSVKGRFTISRDNAKNTVYLQMNSLKPEDTAVYYCAKDGQRDANYYWGQGTQVTVSS	low polyreactivity
QVQLVESGGGLVQAGGSLRLSCAASGSTFSKYAMGWYRQAPGKERELVAAINYGGTSTYYADSVKGRFTISRDNAKNTVYLQMNSLKPEDTAVYYCAVIYRRLYTGGQNPYDYWGQGTQVTVSS	high polyreactivity
QVQLVESGGGLVQAGGSLRLSCAASGSIFYENAMGWYRQAPGKERELVAAISRSGGSTYYADSVKGRFTISRDNAKNTVSLQMNSLKPEDTAVYYCAADVYVFIGDYWGQGTQVTVSS	low polyreactivity
QVQLVESGGGLVQAGVSLRLSCAASGRTFSSYAMGWYRQAPRKERELVPGISWRGGRTYYADSVKGRFTISRDNGKNSVYLQMNSLKREDTAVYYCNKVYRTYYGDYRFSGIPRYDYVGQGTQVTVSS	high polyreactivity
QVQLVESGGGLVQAGGSLRLSCAASGSTFGKNAMGWYRQAPGKERELVAAITSSGGRTYYADSVKGRFTISRDNAKNTVYLQMNSLKPEDTAVYYCNAVTRRRSLGPWPVEYDYWGQGTQVTVSS	high polyreactivity
QVQLVESGGGLVQAGGSLRLSCAASGITFFGYALGWYRQAPGKERELVADITTSDSTYYADSVKGRFTISRDNAKNTVYLQMNSLKPEDTAVYYCNADYYDGGYGPGVEEYDYWGQGTQVTVSS	low polyreactivity
QVQLVESGGGLVQAGGSLRLSCAASGSTFSRYTMGWYRQAPGKEWELVAAISFRASSTYYADSVKGRFTISRDNAKNTVYLQMNSLKPEDTAVYYCAARNVFRYRWPIEYDYWGQGTQVTVSS	low polyreactivity
QVQLVESGGGLVQAGGSLRLSCAASGINFNYYVMGWYRQAPGKERELVAAISRSGGRTRYADSVKGRFTISRDNAKNTVYLQMNSLKPEDTAVYYCAAVGSVNYDADFDYWGQGTQVTVSS	high polyreactivity
QVQLVESGGGLVQAGGSLRLSCAASGFIFQHYAMGWYRQAPGKERELVAAISKSGGSTYYADSVKGRFTISRDNAKNTVYLQMNSLKPEDTAVYYCAKVAVAGRGSGNYINHRFDYWGQGTQVTVSS	high polyreactivity
QVQLVVSGGGLVQAGGSLRLSCAASGFIFGYYAMGWYRQAPGNERALDAAITGRGGSTNYADSVKGRFTISRDNAKNTVYLQMNSLKPEDTAVYYCAKRWRSYSRGGDYWGQGTQVTVSS	high polyreactivity
QVQLVESVGGLVQAGGSLRLSCAASVRTFYNYSMGWYRQAPGKERELVAGISRRGGSTYYADSVKGRFTISRDNAKNTVYLQMNSLKPEDTAVYYCIEDLVRPGYYRYDYRGQGTQVTVSS	high polyreactivity
